# measured target: PIP5K1B (Homo sapiens)
# Sequence (O14986 whole entry): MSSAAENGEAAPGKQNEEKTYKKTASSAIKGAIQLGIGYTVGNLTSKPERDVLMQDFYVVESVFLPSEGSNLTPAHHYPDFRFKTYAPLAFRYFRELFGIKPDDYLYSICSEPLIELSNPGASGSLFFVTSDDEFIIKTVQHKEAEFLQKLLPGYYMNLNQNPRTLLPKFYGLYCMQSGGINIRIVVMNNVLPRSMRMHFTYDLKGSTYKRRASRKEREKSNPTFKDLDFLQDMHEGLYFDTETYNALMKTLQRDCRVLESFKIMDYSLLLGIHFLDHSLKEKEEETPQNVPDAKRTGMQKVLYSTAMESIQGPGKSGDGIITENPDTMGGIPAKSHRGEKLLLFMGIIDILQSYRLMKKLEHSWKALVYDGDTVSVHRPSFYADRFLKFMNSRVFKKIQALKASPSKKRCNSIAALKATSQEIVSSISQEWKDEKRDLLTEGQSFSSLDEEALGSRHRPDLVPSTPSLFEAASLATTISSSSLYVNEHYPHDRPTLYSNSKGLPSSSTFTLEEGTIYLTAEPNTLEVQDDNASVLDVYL
pIC50: −log10 of the molar value.
measured metric: pIC50

# compound, measured metric, test value
rows = [
    ("Fc1ccc(Nc2nc(Nc3ccc(-c4nc5ccccc5[nH]4)cc3)nc(N3CCOCC3)n2)cc1 [15g]", "pIC50", 6.55),
]

Source listed as paper PMC13193874.
